Please go through the items and note down their Ratio Ki.
# Species: Homo sapiens
# test name: Selectivity ratio, ratio of Ki for human KOR to Ki for human DOR
Where a SMILES comes first, the peptide text is derived from it.

Sample records with Ratio Ki:
# compound, Ratio Ki
data = [
    ("CC[C@H](C)[C@H](NC(=O)[C@H](CCC(N)=O)NC(=O)[C@H](CCCNC(=N)N)NC(=O)[C@H](CCCNC(=N)N)NC(=O)[C@@H]1CSSC[C@H](NC(=O)[C@@H](N)CC(N)=O)C(=O)N1)C(=O)N[C@H]1CSSC[C@@H](C(N)=O)NC1=O (HELM PEPTIDE1{N.C.C.R.R.Q.I.C.C.[am]}$PEPTIDE1,PEPTIDE1,2:R3-3:R3|PEPTIDE1,PEPTIDE1,8:R3-9:R3$$$V2.0)", "> 630"),
    ("CC[C@H](C)[C@H](NC(=O)[C@H](CCC(N)=O)NC(=O)[C@H](CCCNC(=N)N)NC(=O)[C@H](CCCNC(=N)N)NC(=O)[C@@H]1CSSC[C@H](NC(=O)[C@@H]2CCC(=O)N2)C(=O)N1)C(=O)N[C@H]1CSSC[C@@H](C(N)=O)NC1=O (HELM PEPTIDE1{[Glp].C.C.R.R.Q.I.C.C.[am]}$PEPTIDE1,PEPTIDE1,2:R3-3:R3|PEPTIDE1,PEPTIDE1,8:R3-9:R3$$$V2.0)", "> 630"),
]

Req: Report Ratio Ki for "N=C(N)NCCC[C@@H](NC(=O)[C@@H](CCCNC(=N)N)NC(=O)[C@@H]1CCCN1C(=O)c1ccccc1)C(=O)N[C@@H](CCC(N)=O)C(=O)N[C@H](C(=O)N[C@H]1CSSC[C@@H](C(N)=O)NC1=O)C1CCCCC1" please.
Resp: > 125000

---

# test name: Metabolic stability in Wistar rat plasma assessed as half life by HPLC analysis
# Format: ADME, cell-free
Assignment: determine reported half-life for the given compounds.
Answers are plain numbers, in h.

As a guide, the following entries are already answered.
# cpd smiles, half-life / h
records = [
    ("N=C(N)NCCC[C@@H](NC(=O)[C@@H]1CCC(=O)N1)C(=O)N[C@H](CCCNC(=N)N)C(=O)N[C@@H](CCC(N)=O)C(=O)N[C@@H](CC1CCCCC1)C(=O)N[C@H]1CSSC[C@@H](C(N)=O)NC1=O", 6),
    ("N=C(N)NCCC[C@@H](NC(=O)[C@@H]1Cc2ccccc2CN1)C(=O)N[C@H](CCCNC(=N)N)C(=O)N[C@@H](CCC(N)=O)C(=O)N[C@@H](CC1CCCCC1)C(=O)N[C@H]1C[Se][Se]C[C@@H](C(N)=O)NC1=O", 6),
    ("N=C(N)NCCC[C@H](NC(=O)[C@@H]1CCC(=O)N1)C(=O)N[C@@H](CCCNC(=N)N)C(=O)N[C@@H](CCC(N)=O)C(=O)N[C@@H](CC1CCCCC1)C(=O)N[C@H]1CSSC[C@@H](C(N)=O)NC1=O", 1.5),
]

Please turn your attention to the following entry.
Req: Form field: reported half-life of "CC[C@H](C)[C@H](NC(=O)[C@H](CCCNC(=N)N)NC(=O)[C@H](CCCNC(=N)N)NC(=O)[C@H](CC(C)C)NC(=O)[C@H](Cc1ccccc1)NC(=O)CNC(=O)CNC(=O)[C@@H](N)Cc1ccc(O)cc1)C(=O)N[C@@H](CCCNC(=N)N)C(=O)N1CCC[C@H]1C(=O)N[C@@H](CCCCN)C(=O)N[C@@H](CC(C)C)C(=O)N[C@@H](CCCCN)C(=O)N[C@@H](Cc1c[nH]c2ccccc12)C(=O)N[C@@H](CC(=O)O)C(=O)N[C@@H](CC(N)=O)C(=O)N[C@@H](CCC(N)=O)C(N)=O"
Resp: 2
